B1: ZNF449 (parent)
chain: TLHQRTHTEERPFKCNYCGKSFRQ

Variants of: B1
assay.method.text: protein stability index of a GFP-peptide fusion (GPS, HEK-293T) (PSI 1-6); higher = more stable;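 also: lentivirally expressed fusions sorted by FACS into six bins by GFP to DsRed ratio, PSI derived from sequencing read proportions per bin multiplied by bin number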
measurement.setup: c terminus: a fixed tail appended
experimental.endpoint: protein stability index
Could you respond with only the numeric value?

entry_sequence="TLHQRTHTEERPFKCNYNGKSFRQ [C18N]" experimental_endpoint="protein stability index" val=3.68

Read the next record carefully.
Documented protein stability index of TLHQRTHTEERLFKCNYCGKSFRQ [P12L] : 3.05
